molecular target: rat-alpha7-nAChR (Rattus norvegicus, UniProt Q05941); construct: expressed in transfected cells; experiment: functional FLIPR assay, alpha7 nAChR stably expressed in GH4C1 cells; assay type: cell-based; details: functional FLIPR primary screening assay, GH4C1 cell line expressing α7 nAChR; read-out: Alpha7 EC50
Sequence (Q05941 23-502): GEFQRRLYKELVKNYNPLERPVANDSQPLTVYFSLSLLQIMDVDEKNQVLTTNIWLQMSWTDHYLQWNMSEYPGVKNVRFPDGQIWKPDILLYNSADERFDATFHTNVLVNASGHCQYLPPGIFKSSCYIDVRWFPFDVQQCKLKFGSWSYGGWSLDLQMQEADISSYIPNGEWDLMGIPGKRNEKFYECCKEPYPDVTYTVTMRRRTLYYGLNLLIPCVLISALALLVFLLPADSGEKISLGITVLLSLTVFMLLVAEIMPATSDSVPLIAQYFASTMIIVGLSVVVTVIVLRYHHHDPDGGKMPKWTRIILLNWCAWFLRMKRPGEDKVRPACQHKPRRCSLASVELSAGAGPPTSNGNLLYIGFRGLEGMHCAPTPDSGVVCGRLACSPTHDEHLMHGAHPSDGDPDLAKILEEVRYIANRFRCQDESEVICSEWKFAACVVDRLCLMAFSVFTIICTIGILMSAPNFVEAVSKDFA
OUTCOME_MEASURE: pEC50
Schema: pEC50 number; meaning minus log10 of the concentration expressed in molar units.

| MOLECULE | OUTCOME_MEASURE | OBSERVED_VALUE |
| --- | --- | --- |
| COc1ccc(C2CC(NC(=O)CCCCN3CCCNCC3)NN2)cc1 (centres unmarked) | pEC50 | 5.16 |

Record CC(=O)N1CCCC(CCCCC(=O)Nc2cc(-c3ccc(O)cc3)[nH]n2)CC1 (centres unmarked) / rat-alpha7-nAChR (Rattus norvegicus, UniProt Q05941), pEC50 recorded as 6.00
